The entries below come with measured self-cleavage values attached.
B1: HDV Ribozyme (parent)
chain: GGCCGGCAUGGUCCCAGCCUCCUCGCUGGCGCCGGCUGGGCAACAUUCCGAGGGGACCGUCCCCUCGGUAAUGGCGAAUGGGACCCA

Variants of: B1
Assay: self-cleavage, relative activity (ratio to wild type); higher = more cleavage; co-transcriptional
ASSAY READOUT: self-cleavage

- G10A C62G: 0.456
- G52A U60A: 0.975
- G17C G40C: 0
- C3G G29A: 0.106
- A43G G82A: 0.138
- A43U U72C: 0.155
- U9C C84G: 0.489
- G34A U65C: 0.141
- G35A A56C: 0.346
- G67U A70C: 0.987
- G35A A43C: 0.0272
